Data provenance: patent US20230128198A1

# maps each entry to its TGI TV(%)
# System: NCI-H446 and NCI-H69 human small cell lung cancer xenograft model
# Assay Notes: In vivo anti-tumor efficacy, xenograft model
# Design: species or system BALB/c nude mice
# Experimental Conditions: 15 mg/kg po., BID × 10 days, QD × 19 days, treatment 29 days
Metric Name: TGI TV(%)

compound="Cc1cc(Nc2cc(Cl)c(F)c(C[C@@]3(C(=O)O)CCN(Cc4cccc(Cl)c4F)[C@H](C)C3)n2)n[nH]1 [Example 72]" metric_name="TGI TV(%)" result_units=% reported_value=89
compound="Cc1cc(Nc2cc(C)c(F)c(C[C@@]3(C(=O)O)CCN(Cc4cccc(Cl)c4F)[C@H](C)C3)n2)n[nH]1 [Example 49]" metric_name="TGI TV(%)" result_units=% reported_value=90
compound="Cc1cc(Nc2nc(C[C@@]3(C(=O)O)CCN(Cc4cccc(Cl)c4F)[C@H](C)C3)ccc2F)[nH]n1 [Example 5]" metric_name="TGI TV(%)" result_units=% reported_value=98
compound="Cc1cc(Nc2nc(C[C@@]3(C(=O)O)CCN(Cc4cccc(Cl)c4F)[C@H](C)C3)cc(C)c2F)n[nH]1 [Example 78]" metric_name="TGI TV(%)" result_units=% reported_value=96
